read-out: Monocyte Chemoattractant Protein-1 (MCP1), CCL2 (gene 6347); experiment: BSK_3C_MCP1: BioMAP Diversity Plus: 3C Assay for Monocyte Chemoattractant Protein-1 (MCP1) Biomarker Activity (AID 2283017); details: primary human endothelial cells (HUVEC); actives raise or lower the signal
The source made the active and inactive calls. The calls were made as follows: active = hit-call score of the fitted dose curve at least 0.9, where 1 is the maximum; inactive = score below 0.9.
Outcomes: y (active), n (inactive)

[
  {
    "Compound": "O=S(=O)(O)C(F)(F)C(F)(F)C(F)(F)C(F)(F)C(F)(F)C(F)(F)C(F)(F)C(F)(F)F",
    "Label": "n"
  },
  {
    "Compound": "CN1CSC(=S)N(C)C1",
    "Label": "y"
  },
  {
    "Compound": "N#Cc1c(Cl)c(Cl)c(Cl)c(C#N)c1Cl",
    "Label": "y"
  },
  {
    "Compound": "CCCN(CCC)c1c([N+](=O)[O-])cc(C(F)(F)F)cc1[N+](=O)[O-]",
    "Label": "n"
  },
  {
    "Compound": "CC[C@H](C)[C@H]1O[C@]2(C=C[C@@H]1C)C[C@@H]1C[C@@H](C/C=C(\\C)[C@@H](O[C@H]3C[C@H](OC)[C@@H](O[C@H]4C[C@H](OC)[C@@H](O)[C@H](C)O4)[C@H](C)O3)[C@@H](C)/C=C/C=C3\\CO[C@@H]4[C@H](O)C(C)=C[C@@H](C(=O)O1)[C@]34O)O2 (tested in a mixture with another compound)",
    "Label": "y"
  },
  {
    "Compound": "CCS(=O)(=O)c1cccnc1S(=O)(=O)NC(=O)Nc1nc(OC)cc(OC)n1",
    "Label": "n"
  },
  {
    "Compound": "CCC(C)(NC(=O)c1cc(Cl)c(C)c(Cl)c1)C(=O)CCl (stereo not given)",
    "Label": "y"
  },
  {
    "Compound": "CNC(=O)CSP(=S)(OC)OC",
    "Label": "n"
  },
  {
    "Compound": "Cc1[nH]c(=O)n(C(C)(C)C)c(=O)c1Cl",
    "Label": "n"
  },
  {
    "Compound": "O=C(O)C(F)(F)C(F)(F)C(F)(F)C(F)(F)C(F)(F)C(F)(F)C(F)(F)F",
    "Label": "n"
  },
  {
    "Compound": "COP(=S)(OC)Oc1ccc(SC)c(C)c1",
    "Label": "n"
  },
  {
    "Compound": "OCCOc1ccccc1",
    "Label": "n"
  },
  {
    "Compound": "CCCN(CCOc1c(Cl)cc(Cl)cc1Cl)C(=O)n1ccnc1",
    "Label": "n"
  },
  {
    "Compound": "O=C(O)COc1ccc(Cl)cc1Cl",
    "Label": "n"
  },
  {
    "Compound": "[2H]C1([2H])[n+]2ccccc2-c2cccc[n+]2C1([2H])[2H]",
    "Label": "n"
  },
  {
    "Compound": "CNC(=O)Oc1cccc(N=CN(C)C)c1",
    "Label": "n"
  },
  {
    "Compound": "CC(C)(C)C(O)/C(=C\\c1ccc(Cl)cc1Cl)n1cncn1 (stereo not given)",
    "Label": "y"
  },
  {
    "Compound": "COc1cc(OC)nc(NC(=O)NS(=O)(=O)c2cc(NC=O)ccc2C(=O)N(C)C)n1",
    "Label": "n"
  },
  {
    "Compound": "COP(=S)(OC)Oc1ccc([N+](=O)[O-])cc1",
    "Label": "y"
  },
  {
    "Compound": "CNC(=O)/C=C(\\C)OP(=O)(OC)OC",
    "Label": "n"
  }
]

---

read-out: Cytochrome P450 3A4 (Homo sapiens) (UniProt P08684); assay: CLD_CYP3A4_48hr: CellzDirect (CLD) Gene Expression Assay for xenobiotic metabolism (CYP3A4) at 48 hours (AID 2283698)
Sequence (P08684 whole entry, looked up): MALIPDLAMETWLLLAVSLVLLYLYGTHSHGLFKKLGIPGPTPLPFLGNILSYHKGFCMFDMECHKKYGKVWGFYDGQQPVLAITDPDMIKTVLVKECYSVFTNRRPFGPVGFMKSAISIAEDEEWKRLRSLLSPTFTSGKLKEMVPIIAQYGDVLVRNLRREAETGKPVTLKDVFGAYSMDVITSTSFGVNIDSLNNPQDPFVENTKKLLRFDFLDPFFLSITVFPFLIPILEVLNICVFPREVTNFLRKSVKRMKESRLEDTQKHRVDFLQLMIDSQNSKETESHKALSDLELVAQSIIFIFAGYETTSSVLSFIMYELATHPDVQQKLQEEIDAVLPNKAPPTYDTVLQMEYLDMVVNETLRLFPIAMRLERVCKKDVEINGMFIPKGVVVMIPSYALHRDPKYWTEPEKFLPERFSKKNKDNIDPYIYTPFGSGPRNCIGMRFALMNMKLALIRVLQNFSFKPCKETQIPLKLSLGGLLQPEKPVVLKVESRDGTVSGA
Records with an inconclusive call do not appear. Calls of active or inactive are those of the source. How the source made its calls: active means hit-call score of the fitted dose curve at least 0.9, where 1 is the maximum; inconclusive means response in the unintended direction; inactive means score below 0.9.
Outcome codes: active, inactive

[
  {
    "Molecule": "C[C@H]1[C@H](c2ccc(Cl)cc2)SC(=O)N1C(=O)NC1CCCCC1",
    "Label": "active"
  },
  {
    "Molecule": "CCOCN(C(=O)CCl)c1c(C)cccc1CC",
    "Label": "active"
  },
  {
    "Molecule": "O=S1OCC2C(CO1)C1(Cl)C(Cl)=C(Cl)C2(Cl)C1(Cl)Cl (configuration not stated)",
    "Label": "active"
  },
  {
    "Molecule": "O=C(Nc1ccccc1)Nc1cnns1",
    "Label": "inactive"
  },
  {
    "Molecule": "O=C(O)COc1ccc(Cl)cc1Cl",
    "Label": "inactive"
  },
  {
    "Molecule": "CNC(=O)/C=C(\\C)OP(=O)(OC)OC",
    "Label": "active"
  },
  {
    "Molecule": "COC(=O)c1ccccc1S(=O)(=O)NC(=O)Nc1nc(C)nc(OC)n1",
    "Label": "inactive"
  }
]

---

Biological target: Bile acid receptor (Homo sapiens) (UniProt Q96RI1)
Sequence (Q96RI1 whole entry, looked up): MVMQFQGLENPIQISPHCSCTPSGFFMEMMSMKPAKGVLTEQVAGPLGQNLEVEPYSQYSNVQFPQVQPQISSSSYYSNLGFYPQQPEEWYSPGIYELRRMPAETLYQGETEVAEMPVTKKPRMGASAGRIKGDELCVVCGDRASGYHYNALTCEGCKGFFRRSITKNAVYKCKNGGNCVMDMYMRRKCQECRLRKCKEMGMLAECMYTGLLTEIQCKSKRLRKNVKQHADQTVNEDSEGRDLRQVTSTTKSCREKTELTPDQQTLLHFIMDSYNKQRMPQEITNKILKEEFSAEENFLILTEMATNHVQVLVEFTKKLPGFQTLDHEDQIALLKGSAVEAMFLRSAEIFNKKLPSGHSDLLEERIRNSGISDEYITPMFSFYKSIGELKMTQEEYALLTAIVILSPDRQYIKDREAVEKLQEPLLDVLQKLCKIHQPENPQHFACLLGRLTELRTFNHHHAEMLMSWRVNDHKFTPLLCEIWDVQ
Test: OT_FXR_FXRSRC1_0480: Odyssey Thera (OT) 8-hour HEK293T Protein-Complementation Assay for Farnesoid X receptor/SRC-1 Co-activator (AID 2283383)
Procedure: OT_FXR_FXRSRC1_0480 is a cell-based assay that uses HEK293T, a human kidney cell line, with measurements taken at 8 hours after chemical dosing in a 384-well plate.OT_FXR_FXRSRC1_0480 is one of one assay component(s) measured or calculated from the OT_FXR_FXRSRC1_0480 assay. […] This assay endpoint, OT_FXR_FXRSRC1_0480, was analyzed in the positive analysis fitting direction relative to DMSO as the negative control and baseline of activity. […]
Inconclusive results are not listed. Calls of active or inactive are those of the source. The calls were made as follows: active = hit-call score of the fitted dose curve at least 0.9, where 1 is the maximum; inconclusive = response in the unintended direction; inactive = score below 0.9.
Possible outcomes: Y (active), N (inactive)

[
  {
    "Compound": "CNC(=O)Oc1cccc(N=CN(C)C)c1",
    "Label": "N"
  },
  {
    "Compound": "CCC(C)(C)C(=O)OC1=C(c2ccc(Cl)cc2Cl)C(=O)OC12CCCCC2",
    "Label": "Y"
  },
  {
    "Compound": "CC1(c2ccc(Oc3ccccc3)cc2)OC(=O)N(Nc2ccccc2)C1=O (stereo unspecified)",
    "Label": "Y"
  },
  {
    "Compound": "Oc1cc(Cl)ccc1Oc1ccc(Cl)cc1Cl",
    "Label": "Y"
  },
  {
    "Compound": "CCCN(CCC)c1c([N+](=O)[O-])cc(C(F)(F)F)cc1[N+](=O)[O-]",
    "Label": "Y"
  },
  {
    "Compound": "ClC1C(Cl)C(Cl)C(Cl)C(Cl)C1Cl (stereo unspecified)",
    "Label": "N"
  }
]

---

read-out: Transforming growth factor beta 1 (TGFb1), TGFB1 (gene 7040); assay: BSK_BE3C_TGFb1: BioMAP Diversity Plus: BE3C Assay for Transforming growth factor beta 1 (TGFb1) Biomarker Activity (AID 2283036); conditions: primary human bronchial epithelial cells; actives raise or lower the signal
Activity calls are given as the source filed them. The calls were made as follows: active = hit-call score of the fitted dose curve at least 0.9, where 1 is the maximum; inactive = score below 0.9.
Readout Label: AC50

[
  {
    "Molecule": "O=C(O)C(F)(F)C(F)(F)C(F)(F)C(F)(F)C(F)(F)C(F)(F)C(F)(F)F",
    "Readout Label": "AC50",
    "Obs Value": "inactive"
  },
  {
    "Molecule": "CC1(C)C(C=C(Cl)Cl)C1C(=O)OC(C#N)c1ccc(F)c(Oc2ccccc2)c1 (stereo not drawn)",
    "Readout Label": "AC50",
    "Obs Value": "inactive"
  },
  {
    "Molecule": "CC(C)(C)C(O)C(Oc1ccc(Cl)cc1)n1cncn1 (stereo not drawn)",
    "Readout Label": "AC50",
    "Obs Value": "inactive"
  },
  {
    "Molecule": "COP(=O)(OC)OC=C(Cl)Cl",
    "Readout Label": "AC50",
    "Obs Value": "inactive"
  },
  {
    "Molecule": "CC[C@H](C)[C@H]1O[C@]2(C=C[C@@H]1C)C[C@@H]1C[C@@H](C/C=C(\\C)[C@@H](O[C@H]3C[C@H](OC)[C@@H](O[C@H]4C[C@H](OC)[C@@H](O)[C@H](C)O4)[C@H](C)O3)[C@@H](C)/C=C/C=C3\\CO[C@@H]4[C@H](O)C(C)=C[C@@H](C(=O)O1)[C@]34O)O2 (tested in a mixture with another compound)",
    "Readout Label": "AC50",
    "Obs Value": "20 µM (active)"
  },
  {
    "Molecule": "CNC(=O)/C=C(\\C)OP(=O)(OC)OC",
    "Readout Label": "AC50",
    "Obs Value": "inactive"
  },
  {
    "Molecule": "N#Cc1c(Cl)c(Cl)c(Cl)c(C#N)c1Cl",
    "Readout Label": "AC50",
    "Obs Value": "3.94 µM (active)"
  },
  {
    "Molecule": "CCOC1Oc2ccc(OS(C)(=O)=O)cc2C1(C)C (stereo not drawn)",
    "Readout Label": "AC50",
    "Obs Value": "inactive"
  },
  {
    "Molecule": "O=[N+]([O-])c1c(Cl)c(Cl)c(Cl)c(Cl)c1Cl",
    "Readout Label": "AC50",
    "Obs Value": "inactive"
  },
  {
    "Molecule": "O=C(O)COc1ccc(Cl)cc1Cl",
    "Readout Label": "AC50",
    "Obs Value": "inactive"
  },
  {
    "Molecule": "CC(C)N(C(=O)COc1nnc(C(F)(F)F)s1)c1ccc(F)cc1",
    "Readout Label": "AC50",
    "Obs Value": "inactive"
  },
  {
    "Molecule": "CCc1ccc(C(=O)NN(C(=O)c2cc(C)cc(C)c2)C(C)(C)C)cc1",
    "Readout Label": "AC50",
    "Obs Value": "inactive"
  },
  {
    "Molecule": "CCN(CC)C(=O)SCc1ccc(Cl)cc1",
    "Readout Label": "AC50",
    "Obs Value": "inactive"
  },
  {
    "Molecule": "CC(C)OC(=O)Nc1cccc(Cl)c1",
    "Readout Label": "AC50",
    "Obs Value": "inactive"
  },
  {
    "Molecule": "CCCN(CCC)c1c([N+](=O)[O-])cc(C(F)(F)F)cc1[N+](=O)[O-]",
    "Readout Label": "AC50",
    "Obs Value": "inactive"
  },
  {
    "Molecule": "[2H]C1([2H])[n+]2ccccc2-c2cccc[n+]2C1([2H])[2H]",
    "Readout Label": "AC50",
    "Obs Value": "inactive"
  },
  {
    "Molecule": "CNC(=O)Oc1cccc(N=CN(C)C)c1",
    "Readout Label": "AC50",
    "Obs Value": "inactive"
  },
  {
    "Molecule": "CCS(=O)(=O)c1cccnc1S(=O)(=O)NC(=O)Nc1nc(OC)cc(OC)n1",
    "Readout Label": "AC50",
    "Obs Value": "inactive"
  },
  {
    "Molecule": "O=[N+]([O-])/N=C1\\NCCN1Cc1ccc(Cl)nc1",
    "Readout Label": "AC50",
    "Obs Value": "inactive"
  },
  {
    "Molecule": "CCOc1nc(NC)nc(NC(=O)NS(=O)(=O)c2ccccc2C(=O)OC)n1",
    "Readout Label": "AC50",
    "Obs Value": "inactive"
  },
  {
    "Molecule": "Cc1cc(C)nc(NC(=O)NS(=O)(=O)c2ccccc2C(=O)OC2COC2)n1",
    "Readout Label": "AC50",
    "Obs Value": "inactive"
  },
  {
    "Molecule": "O=C(Nc1ccccc1)Nc1cnns1",
    "Readout Label": "AC50",
    "Obs Value": "inactive"
  },
  {
    "Molecule": "CC(C)(C)C(O)/C(=C\\c1ccc(Cl)cc1Cl)n1cncn1 (stereo not drawn)",
    "Readout Label": "AC50",
    "Obs Value": "inactive"
  },
  {
    "Molecule": "CCC(C)(NC(=O)c1cc(Cl)c(C)c(Cl)c1)C(=O)CCl (stereo not drawn)",
    "Readout Label": "AC50",
    "Obs Value": "inactive"
  },
  {
    "Molecule": "CC1(c2ccc(Oc3ccccc3)cc2)OC(=O)N(Nc2ccccc2)C1=O (stereo not drawn)",
    "Readout Label": "AC50",
    "Obs Value": "inactive"
  },
  {
    "Molecule": "COP(=S)(OC)Oc1ccc([N+](=O)[O-])cc1",
    "Readout Label": "AC50",
    "Obs Value": "9.07 µM (active)"
  },
  {
    "Molecule": "N#CN",
    "Readout Label": "AC50",
    "Obs Value": "0.638 µM (active)"
  },
  {
    "Molecule": "CCCN(CCOc1c(Cl)cc(Cl)cc1Cl)C(=O)n1ccnc1",
    "Readout Label": "AC50",
    "Obs Value": "inactive"
  },
  {
    "Molecule": "Oc1ccc(Cl)cc1Cc1ccccc1",
    "Readout Label": "AC50",
    "Obs Value": "33.9 µM (active) [middle of 7 runs]"
  },
  {
    "Molecule": "Cc1[nH]c(=O)n(C(C)(C)C)c(=O)c1Cl",
    "Readout Label": "AC50",
    "Obs Value": "inactive"
  },
  {
    "Molecule": "OCCOc1ccccc1",
    "Readout Label": "AC50",
    "Obs Value": "inactive"
  },
  {
    "Molecule": "COc1nn(CSP(=S)(OC)OC)c(=O)s1",
    "Readout Label": "AC50",
    "Obs Value": "inactive"
  },
  {
    "Molecule": "ClC1C(Cl)C(Cl)C(Cl)C(Cl)C1Cl (stereo not drawn)",
    "Readout Label": "AC50",
    "Obs Value": "inactive"
  }
]
